Experiment: Inhibition of gamma-secretase-mediated APP cleavage assessed as amyloid beta40 level after 2 hrs by ELISA
pIC50: −log10 of the molar value.
# binarize pIC50: threshold 7 inclusive, high side label 1, low side label 0

{"chem.smiles": "O=C1NCCCC[C@H]1N(Cc1cnc2ccccc2c1)S(=O)(=O)c1ccc(Cl)cc1", "assigned.class": "label 1"}
{"chem.smiles": "COc1cc(CN([C@@H]2CCCCNC2=O)S(=O)(=O)c2ccc(Cl)cc2)ccc1OCCc1scnc1C", "assigned.class": "label 0"}
{"chem.smiles": "O=C(NC1CCC1)c1ccc(CN([C@@H]2CCCCNC2=O)S(=O)(=O)c2ccc(Cl)cc2)cc1", "assigned.class": "label 1"}
{"chem.smiles": "Cn1c(CN([C@@H]2CCCCNC2=O)S(=O)(=O)c2ccc(Cl)cc2)cc2ccccc21", "assigned.class": "label 0"}
{"chem.smiles": "O=C(NC1CC1)c1ccc(CN([C@@H]2CCCCNC2=O)S(=O)(=O)c2ccc(Cl)cc2)cc1", "assigned.class": "label 1"}

----------
Entries and their log10(IC50) values follow.
Assay: Inhibition of gamma-secretase-mediated notch cleavage after 2 hrs by ELISA
reported.endpoint: log10(IC50) (log10 of the value in nM)

{"molecule": "O=C1NCCCC[C@H]1N(Cc1cc2ccccc2o1)S(=O)(=O)c1ccc(Cl)cc1", "log10(IC50)": 1.48}
{"molecule": "O=C(NC1CC1)c1ccc(CN([C@@H]2CCCCNC2=O)S(=O)(=O)c2ccc(Cl)cc2)cc1", "log10(IC50)": 1.81}
{"molecule": "O=C1NCCCC[C@H]1N(CC1CCc2ccccc2O1)S(=O)(=O)c1ccc(Cl)cc1 (stereo partly drawn)", "log10(IC50)": 2.29}
{"molecule": "O=C1NCCCC[C@H]1N(Cc1cc2ccccc2s1)S(=O)(=O)c1ccc(Cl)cc1", "log10(IC50)": 1.66}
{"molecule": "O=C1NCCCC[C@H]1N(Cc1csnn1)S(=O)(=O)c1ccc(Cl)cc1", "log10(IC50)": 3.33}
{"molecule": "CCCNC(=O)c1ccc(CN([C@@H]2CCCCNC2=O)S(=O)(=O)c2ccc(Cl)cc2)cc1", "log10(IC50)": 1.41}
{"molecule": "O=C(NC1CCCC1)c1ccc(CN([C@@H]2CCCCNC2=O)S(=O)(=O)c2ccc(Cl)cc2)cc1", "log10(IC50)": 1.15}
{"molecule": "O=C1NCCCC[C@H]1N(Cc1cnc2ccccc2c1)S(=O)(=O)c1ccc(Cl)cc1", "log10(IC50)": 2.10}

These measurements were taken from ChEMBL document CHEMBL1777728.
